System: HRV-39
procedure.summary: Antirhinoviral H1-HeLa cell culture assay (XTT cell protection)
Format: cell-based
experimental.conditions: Human rhinovirus sp., HRV39; HRV-39, H1-HeLa cells
recorded.metric: EC50 (nM)

compound=C#CC[C@H](CC(=O)c1ccc(-c2ccccc2Cl)[nH]1)C(=O)N[C@H](/C=C/C(=O)OCC)C[C@@H]1CCNC1=O recorded_metric=EC50 assay_result=593
compound=C#CC[C@H](NC(=O)c1ccc(-c2ccccc2C(F)(F)F)[nH]1)C(=O)N[C@H](/C=C/C(=O)OCC)C[C@@H]1CCNC1=O recorded_metric=EC50 assay_result=180

P. C#CC[C@H](CC(=O)c1ccc(-c2ccccc2C)[nH]1)C(=O)N[C@H](/C=C/C(=O)OCC)C[C@@H]1CCNC1=O
Q. C#CC[C@H](CC(=O)c1ccc(-c2ccccc2C(F)(F)F)[nH]1)C(=O)N[C@H](/C=C/C(=O)OCC)C[C@@H]1CCNC1=O
Identify the entry with the smaller EC50: P or Q . # respond with the chosen item's label
Q

* * *

procedure.summary: Cytotoxicity in uninfected cells of the anticoxsackieviral assay (XTT)
Type: cell-based
experimental.conditions: human, H1-HeLa cells, table line CAV-21
recorded.metric: CC50 at 2 days

Can you share its CC50 at 2 days? I mean this compound: CCOC(=O)/C=C/[C@H](C[C@@H]1CCNC1=O)NC(=O)[C@H](Cc1ccccc1)NC(=O)c1ccc(-c2cccc3ccccc23)[nH]1 [Compound 25]
> 10 µM

* * *

System: HRV-14
procedure.summary: Antirhinoviral H1-HeLa cell culture assay (XTT cell protection)
Type: cell-based, human rhinovirus
experimental.conditions: Rhinovirus B, HRV14, H1-HeLa, HRV-14, H1-HeLa cells
pEC50: −log10 of the molar value.
recorded.metric: pEC50

compound="CCOC(=O)/C=C/[C@H](CCC(N)=O)NC(=O)[C@@H](CC(=O)c1ccc(-c2ccccc2C(F)(F)F)[nH]1)Cc1ccccc1 [Compound 40]" assay_result=5.78
compound="CCOC(=O)/C=C/[C@H](C[C@@H]1CCNC1=O)NC(=O)[C@H](Cc1ccccc1)NC(=O)c1ccc(-c2ccccc2C(F)(F)F)[nH]1 [Compound 28]" assay_result=7.23
compound="C#CC[C@H](CC(=O)c1ccc(-c2ccccc2Cl)[nH]1)C(=O)N[C@H](/C=C/C(=O)OCC)C[C@@H]1CCNC1=O [Compound 38]" assay_result=6.87

A. CCOC(=O)/C=C/[C@H](CCC(N)=O)NC(=O)[C@H](Cc1ccccc1)NC(=O)c1ccc(-c2cc(OC)ccc2OC)[nH]1 [Compound 7]
B. CCOC(=O)/C=C/[C@H](CCC(N)=O)NC(=O)[C@H](CC(C)C)NC(=O)c1ccc(-c2ccccc2C(F)(F)F)[nH]1 [Compound 17]
Identify the entry with the smaller pEC50: A or B . # respond with the chosen item's label
B
(B: 5.66, A: 6.52)

* * *

Tested on: HRV-16
procedure.summary: Antirhinoviral H1-HeLa cell culture assay (XTT cell protection)
Format: cell-based
experimental.conditions: Human rhinovirus sp., HRV16; HRV-16, H1-HeLa cells
pEC50: −log10 of the molar value.
recorded.metric: pEC50

compound=C#CC[C@H](CC(=O)c1ccc(-c2ccccc2Cl)[nH]1)C(=O)N[C@H](/C=C/C(=O)OCC)C[C@@H]1CCNC1=O target_under_test=HRV-16 assay_result=5.83
compound=C#CC[C@H](CC(=O)c1ccc(-c2ccccc2C)[nH]1)C(=O)N[C@H](/C=C/C(=O)OCC)C[C@@H]1CCNC1=O target_under_test=HRV-16 assay_result=6.02

* * *

Quick reference: CC50 of the listed items.
System: H1-HeLa cells
procedure.summary: Cytotoxicity in mock-infected cells of the antirhinoviral assay (XTT)
Type: cell-based
experimental.conditions: table line HRV-14
Description: In this cell protection assay, the ability of compounds to protect cells against HRV infection was measured by the XTT dye reduction method, which is described in Weislow et al., J. Natl. Cancer Inst. (1989), vol. 81, 577-586. […] Two days later, XTT/PMS was added to test plates and the amount of formazan produced was quantified spectrophotometrically at 450/650 nm. […] The therapeutic index (TI) was calculated by dividing the CC50 value by the EC50 value. […]

compound="C#CC[C@H](CC(=O)c1ccc(-c2ccccc2Cl)[nH]1)C(=O)N[C@H](/C=C/C(=O)OCC)C[C@@H]1CCNC1=O [Compound 38]" assay_result="> 10 µM"

Here's the next entry for you.
Can you share its CC50? I mean this compound: C#CC[C@H](CC(=O)c1ccc(-c2ccccc2C)[nH]1)C(=O)N[C@H](/C=C/C(=O)OCC)C[C@@H]1CCNC1=O [Compound 39]
> 10 µM

* * *

target.under.test: rhinovirus 3C protease, serotype 14 (Human rhinovirus 14, UniProt P03303)
Construct: Recombinant rhinovirus 3C proteases; made in house
Sequence (P03303 1538-1719): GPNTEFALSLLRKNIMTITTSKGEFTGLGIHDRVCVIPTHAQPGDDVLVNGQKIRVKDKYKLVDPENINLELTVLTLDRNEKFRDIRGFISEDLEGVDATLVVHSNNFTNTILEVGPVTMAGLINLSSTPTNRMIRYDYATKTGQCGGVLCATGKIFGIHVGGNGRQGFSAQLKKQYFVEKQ
procedure.summary: Inhibition of rhinovirus 3C protease (FRET assay, enzyme start)
Format: biochemical
experimental.conditions: HRV-14 3C protease, progress curves, read-out: Kobs/I
recorded.metric: kinact/KI (M⁻¹ s⁻¹)

compound=CCOC(=O)/C=C/[C@H](CCC(N)=O)NC(=O)[C@H](CC(C)C)NC(=O)c1ccc(-c2ccccc2C(F)(F)F)[nH]1 recorded_metric=kinact/KI unit_symbol="M⁻¹ s⁻¹" assay_result=2900

A. CCOC(=O)/C=C/[C@H](CCC(N)=O)NC(=O)[C@H](Cc1ccccc1)NC(=O)c1ccc(-c2ccccc2)[nH]1
B. CCOC(=O)/C=C/[C@H](CCC(N)=O)NC(=O)[C@H](CC)NC(=O)c1ccc(-c2ccccc2C(F)(F)F)[nH]1
Identify the entry with the smaller kinact/KI: A or B . # respond with the chosen item's label
A

* * *

Tested on: HRV-87
procedure.summary: Antirhinoviral H1-HeLa cell culture assay (XTT cell protection)
Assay type: cell-based
experimental.conditions: Human rhinovirus sp., HRV87; HRV-87, H1-HeLa cells
recorded.metric: EC50 (nM)

compound=C#CC[C@H](CC(=O)c1ccc(-c2ccccc2C)[nH]1)C(=O)N[C@H](/C=C/C(=O)OCC)C[C@@H]1CCNC1=O target_under_test=HRV-87 recorded_metric=EC50 assay_result=83
compound=C#CC[C@H](CC(=O)c1ccc(-c2ccccc2Cl)[nH]1)C(=O)N[C@H](/C=C/C(=O)OCC)C[C@@H]1CCNC1=O target_under_test=HRV-87 recorded_metric=EC50 assay_result=97

* * *

System: H1-HeLa cells
procedure.summary: Cytotoxicity in mock-infected cells of the antirhinoviral assay (XTT)
Assay type: cell-based
experimental.conditions: table line HRV-16
recorded.metric: CC50

compound=C#CC[C@H](CC(=O)c1ccc(-c2ccccc2Cl)[nH]1)C(=O)N[C@H](/C=C/C(=O)OCC)C[C@@H]1CCNC1=O recorded_metric=CC50 assay_result="> 10 µM"

Here's the next entry for you.
Can you share its CC50? I mean this molecule: C#CC[C@H](CC(=O)c1ccc(-c2ccccc2C)[nH]1)C(=O)N[C@H](/C=C/C(=O)OCC)C[C@@H]1CCNC1=O
> 10 µM

* * *

procedure.summary: Cytotoxicity in mock-infected cells of the antirhinoviral assay (XTT)
Type: cell-based
experimental.conditions: human, H1-HeLa cells, table line HRV-14
recorded.metric: CC50 at 2 days

compound=CCOC(=O)/C=C/[C@H](CCC(N)=O)NC(=O)[C@H](Cc1ccccc1)NC(=O)c1ccc(-c2cccc3c2OCO3)[nH]1 recorded_metric="CC50 at 2 days" assay_result="> 10 µM"
compound=CCOC(=O)/C=C/[C@H](CCC(N)=O)NC(=O)[C@H](CC(C)C)NC(=O)c1ccc(-c2ccccc2C(F)(F)F)[nH]1 recorded_metric="CC50 at 2 days" assay_result="> 10 µM"
compound=CCOC(=O)/C=C/[C@H](CCC(N)=O)NC(=O)[C@H](CC)NC(=O)c1ccc(-c2ccccc2C(F)(F)F)[nH]1 recorded_metric="CC50 at 2 days" assay_result="> 10 µM"
compound=CCOC(=O)/C=C/[C@H](CCC(N)=O)NC(=O)[C@H](Cc1ccccc1)NC(=O)c1ccc(-c2cccc(C(C)C)c2)[nH]1 recorded_metric="CC50 at 2 days" assay_result="> 10 µM"
compound=CCOC(=O)/C=C/[C@H](CCC(N)=O)NC(=O)[C@H](Cc1ccccc1)NC(=O)c1ccc(-c2ccccc2C(F)(F)F)[nH]1 recorded_metric="CC50 at 2 days" assay_result="> 10 µM"

Can you share its CC50 at 2 days? I mean this compound: C#CC[C@H](CC(=O)c1ccc(-c2ccccc2C(F)(F)F)[nH]1)C(=O)N[C@H](/C=C/C(=O)OCC)C[C@@H]1CCNC1=O
> 10 µM

Can you share its CC50 at 2 days? I mean this compound: O=C1OCC/C1=C\[C@H](C[C@@H]1CCNC1=O)NC(=O)[C@H](Cc1ccc(F)cc1)NC(=O)c1ccc(-c2ccccc2)[nH]1
> 10 µM

Can you share its CC50 at 2 days? I mean this compound: CCCC[C@H](NC(=O)c1ccc(-c2ccccc2C(F)(F)F)[nH]1)C(=O)N[C@H](/C=C/C(=O)OCC)CCC(N)=O
> 10 µM

Can you share its CC50 at 2 days? I mean this compound: CCOC(=O)/C=C/[C@H](C[C@@H]1CCNC1=O)NC(=O)[C@H](Cc1ccccc1)NC(=O)c1ccc(-c2cccc3ccccc23)[nH]1
> 10 µM
